Sourced from paper PMC11766601

Reported values of Papp for individual entries
assay: Toxin crossing and apparent permeability across Caco-2 cell monolayers (A to B), LC-MS/MS; assay type: in vitro ADME, human; conditions: human, Caco-2; 2 and 6 h, 8-32 ng/mL; read-out: Papp, range of means

compound: C=C1CCCC2=NCC(C)C(C)CC23CCC(C(=O)O)=CC3C2OC3(CC4CCCC5(CCC6(OC(CCC6(C)O)C1)O5)O4)CC(C)C(O)C2O3 (centres unmarked)
Papp: 12.5 to 21.3 nm/s
--
compound: C=C1CCCC2=NCC(C)C(C)CC23CCC(C(O)CCC(=O)O)=CC3C2OC3(CC(C)CC2O3)CC2OC3(CCC4(OC(CCC4(C)O)C1)O3)CC(C)C2O (centres unmarked)
Papp: 14.9 to 37.5 nm/s

----------
tested on: Caco-2 cell monolayers; test: Toxin crossing and apparent permeability across Caco-2 cell monolayers (A to B), LC-MS/MS; format: in vitro ADME, human; conditions: 2 h, loaded 16 ng/mL, A to B, relative to quantified T0
quantity.name: Percentage of toxin crossing the Caco-2 cell monolayers (%)

molecule: C=C1CCCC2=NCC(C)C(C)CC23CCC(C2CCC(=O)O2)=CC3C2OC3(CC(C)CC2O3)CC2OC3(CCC4(OC(CCC4(C)O)C1)O3)CC(C)C2O (stereo not drawn)
observed.value: 10.12
//
molecule: C=C1CCCC2=NCC(C)C(C)CC23CCC(C(O)CCC(=O)O)=CC3C2OC3(CC(C)CC2O3)CC2OC3(CCC4(OC(CCC4(C)O)C1)O3)CC(C)C2O (stereo not drawn)
observed.value: 2.41
//
molecule: C=CC1=CC2C3OC4(CC5CCCC6(CCC7(OC(CCC7(C)O)CC(=C)CCCC7=NCC(C)C(C)CC72CC1)O6)O5)CC(C)C(O)C3O4 (stereo not drawn)
observed.value: 23.32
//
molecule: C=CC1=CC2C3OC4(CC(C)CC3O4)CC3OC4(CCC5(OC(CCC5(C)O)CC(=C)CCCC5=NCC(C)C(C)CC52CC1)O4)CC(C)C3O (stereo not drawn)
observed.value: 22.05
//
molecule: C=CC1=CC2C3O[C@]4(CCC(O4)[C@@H](C)C[C@@H](O)C3=O)C[C@H](O)C3=NCC[C@@]32CC1 (stereo partly drawn)
observed.value: 15.48
//
molecule: C=C1CCCC2=NCC(C)C(C)CC23CCC(C(=O)O)=CC3C2OC3(CC4CCCC5(CCC6(OC(CCC6(C)O)C1)O5)O4)CC(C)C(O)C2O3 (stereo not drawn)
observed.value: 2.26

----------
test system: Caco-2 cell monolayers; test: Toxin crossing and apparent permeability across Caco-2 cell monolayers (A to B), LC-MS/MS; format: in vitro ADME, human; details: threshold Papp > 1.5 × 10^−6 cm·s^−1 = highly penetrative
quantity.name: permeability / oral bioavailability class from Caco-2 Papp

molecule: C=C1CCCC2=NCC(C)C(C)CC23CCC(C(=O)O)=CC3C2OC3(CC4CCCC5(CCC6(OC(CCC6(C)O)C1)O5)O4)CC(C)C(O)C2O3 (stereo not drawn)
observed.value: poor permeability
//
molecule: C=C1CCCC2=NCC(C)C(C)CC23CCC(C(O)CCC(=O)O)=CC3C2OC3(CC(C)CC2O3)CC2OC3(CCC4(OC(CCC4(C)O)C1)O3)CC(C)C2O (stereo not drawn)
observed.value: poor permeability

----------
system: Caco-2 cell monolayers; experiment: Toxin crossing and apparent permeability across Caco-2 cell monolayers (A to B), LC-MS/MS; assay type: in vitro ADME, human; settings: 6 h, 16 ng/mL, relative to theoretical loaded concentration
Reported values of % theoretical amount of toxin crossing the Caco-2 cell monolayers for individual entries
quantity.name: % theoretical amount of toxin crossing the Caco-2 cell monolayers (%)

compound: C=C1CCCC2=NCC(C)C(C)CC23CCC(C(O)CCC(=O)O)=CC3C2OC3(CC(C)CC2O3)CC2OC3(CCC4(OC(CCC4(C)O)C1)O3)CC(C)C2O (stereo not drawn) [PnTX-E]
observed.value: 2.12
//
compound: C=CC1=CC2C3O[C@]4(CCC(O4)[C@@H](C)C[C@@H](O)C3=O)C[C@H](O)C3=NCC[C@@]32CC1 (stereo partly drawn) [Portimine, portimine]
observed.value: 26.08
//
compound: C=C1CCCC2=NCC(C)C(C)CC23CCC(C(=O)O)=CC3C2OC3(CC4CCCC5(CCC6(OC(CCC6(C)O)C1)O5)O4)CC(C)C(O)C2O3 (stereo not drawn) [PnTX-A]
observed.value: 3.42

----------
tested on: Caco-2 cell monolayers; experiment: Toxin crossing and apparent permeability across Caco-2 cell monolayers (A to B), LC-MS/MS; assay type: in vitro ADME, human; details: 2 h, 8 ng/mL, relative to theoretical loaded concentration
Reported values of % theoretical amount of toxin crossing the Caco-2 cell monolayers for individual entries
quantity.name: % theoretical amount of toxin crossing the Caco-2 cell monolayers (%)

compound: C=CC1=CC2C3OC4(CC(C)CC3O4)CC3OC4(CCC5(OC(CCC5(C)O)CC(=C)CCCC5=NCC(C)C(C)CC52CC1)O4)CC(C)C3O (stereo not drawn) [PnTX-H, Pinnatoxin H]
observed.value: 3.96
//
compound: C=CC1=CC2C3OC4(CC5CCCC6(CCC7(OC(CCC7(C)O)CC(=C)CCCC7=NCC(C)C(C)CC72CC1)O6)O5)CC(C)C(O)C3O4 (stereo not drawn) [PnTX-G, Pinnatoxin G]
observed.value: 6.83
//
compound: C=C1CCCC2=NCC(C)C(C)CC23CCC(C2CCC(=O)O2)=CC3C2OC3(CC(C)CC2O3)CC2OC3(CCC4(OC(CCC4(C)O)C1)O3)CC(C)C2O (stereo not drawn) [PnTX-F]
observed.value: 4.75

----------
experiment: Toxin crossing and apparent permeability across Caco-2 cell monolayers (A to B), LC-MS/MS; type: in vitro ADME, human; details: human, Caco-2; 6 h, loaded 8 ng/mL, A to B
Reported values of Papp at 6 h, 8 ng/mL for individual entries
quantity.name: Papp at 6 h, 8 ng/mL (×10⁻⁶ cm/s)

compound: C=CC1=CC2C3OC4(CC(C)CC3O4)CC3OC4(CCC5(OC(CCC5(C)O)CC(=C)CCCC5=NCC(C)C(C)CC52CC1)O4)CC(C)C3O (stereo not drawn)
observed.value: 36
--
compound: C=C1CCCC2=NCC(C)C(C)CC23CCC(C2CCC(=O)O2)=CC3C2OC3(CC(C)CC2O3)CC2OC3(CCC4(OC(CCC4(C)O)C1)O3)CC(C)C2O (stereo not drawn)
observed.value: 16.1
--
compound: C=C1CCCC2=NCC(C)C(C)CC23CCC(C(O)CCC(=O)O)=CC3C2OC3(CC(C)CC2O3)CC2OC3(CCC4(OC(CCC4(C)O)C1)O3)CC(C)C2O (stereo not drawn)
observed.value: 2.04
--
compound: C=CC1=CC2C3O[C@]4(CCC(O4)[C@@H](C)C[C@@H](O)C3=O)C[C@H](O)C3=NCC[C@@]32CC1 (stereo partly drawn)
observed.value: 15
--
compound: C=C1CCCC2=NCC(C)C(C)CC23CCC(C(=O)O)=CC3C2OC3(CC4CCCC5(CCC6(OC(CCC6(C)O)C1)O5)O4)CC(C)C(O)C2O3 (stereo not drawn)
observed.value: 2.13
--
compound: C=CC1=CC2C3OC4(CC5CCCC6(CCC7(OC(CCC7(C)O)CC(=C)CCCC7=NCC(C)C(C)CC72CC1)O6)O5)CC(C)C(O)C3O4 (stereo not drawn)
observed.value: 21.4
